// values below are MIC; system is S. pyogenes JCM5674(ATCC12344)
Give a bare numeral; the unit µg/mL is implied.

*Q* Consider the molecule COc1c(N2C[C@@H]3CCC[C@]3(N)C2)c(F)cc2c(=O)c(C(=O)O)cn([C@@H]3C[C@@H]3F)c12 (single isomer, unassigned) and give its measured MIC.
*A* 0.025

*Q* Consider the molecule COc1c(N2CC3(N)CCC4CC43C2)c(F)cc2c(=O)c(C(=O)O)cn([C@@H]3C[C@@H]3F)c12 (single isomer, unassigned) and give its measured MIC.
*A* 0.05

*Q* Consider the molecule COc1c(N2C[C@@H]3CC=CC[C@@]3(N)C2)c(F)cc2c(=O)c(C(=O)O)cn([C@@H]3C[C@@H]3F)c12 and give its measured MIC.
*A* 0.05

*Q* Consider the molecule C[C@H]1COc2c(N3CCN(C)CC3)c(F)cc3c(=O)c(C(=O)O)cn1c23 [LVFX, levofloxacin, reference compound] and give its measured MIC.
*A* 0.39
